The reported measurements were obtained from the supplement of paper PMC11061612.

- System: NOS-1 (Osteosarcoma);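 further: after 72 h of two-drug dosing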
- test-details: Bliss excess, mean over the matrix (fraction); higher = more synergy
measured-endpoint: Bliss excess
Form rule: numeric answer, no unit written next to it.

If you can, please state the reported Bliss excess value of NC1(C(=O)N[C@@H](CCO)c2ccc(Cl)cc2)CCN(c2ncnc3[nH]ccc23)CC1 [Capivasertib] + CC(C)n1c(=O)n(C)c2cnc3cc(F)c(-c4ccc(OCCCN5CCCCC5)nc4)cc3c21 [AZD1390] (first compound max 10 µM, 7x7, partner max 0.3 µM) .
-0.0117

Request: CN(CCO)CC[C@H](CSc1ccccc1)Nc1ccc(S(=O)(=O)NC(=O)c2ccc(N3CCC([C@@H](O)c4ccccc4-c4ccc(Cl)cc4)CC3)cc2)cc1S(=O)(=O)C(F)(F)F [AZD4320] + Cn1cnc2c(F)c(Nc3ccc(Br)cc3Cl)c(C(=O)NOCCO)cc21 [Selumetinib] (first compound max 1 µM, 7x7, partner max 3 µM)
0.0796

Request: COc1nnc2ccc(N3CCC(c4ccc(OCCN5CCN(C)C(=O)[C@H]5C)cc4)CC3)nn12 [AZD5153] + CC1(C)CCC(CN2CCN(c3ccc(C(=O)NS(=O)(=O)c4ccc(NCC5CCOCC5)c([N+](=O)[O-])c4)c(Oc4cnc5[nH]ccc5c4)c3)CC2)=C(c2ccc(Cl)cc2)C1 [Venetoclax] (first compound max 1 µM, 7x7, partner max 1 µM)
-0.0078
